# yeast surface expression values compiled below
B1: scFv; the commonest letter at each place (parent)
chain 1: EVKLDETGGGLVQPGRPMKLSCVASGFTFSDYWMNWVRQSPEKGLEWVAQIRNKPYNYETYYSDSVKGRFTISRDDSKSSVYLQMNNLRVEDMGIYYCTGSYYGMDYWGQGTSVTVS
chain 2: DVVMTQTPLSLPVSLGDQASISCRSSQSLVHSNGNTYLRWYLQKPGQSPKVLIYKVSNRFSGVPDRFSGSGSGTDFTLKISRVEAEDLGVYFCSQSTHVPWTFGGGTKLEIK

Variants of: B1
ASSAY_NOTES: yeast surface expression (ratio to wild type); higher = more expressed
CONDITIONS_USED: format: scFv 4-4-20, heavy + light
ENDPOINT_LABEL: yeast surface expression

>>> endpoint_value("chain 1 Y103V G104W")
0.419
>>> endpoint_value("chain 1 Y32K N35R")
0.103
>>> endpoint_value("chain 1 W36Q V37T")
0.396
>>> endpoint_value("chain 1 G104Q G109T")
0.272
>>> endpoint_value("chain 1 G100S M105W")
0.758
>>> endpoint_value("chain 1 F29M W33P")
0.639
>>> endpoint_value("chain 1 S101D Y102F")
0.93
>>> endpoint_value("chain 1 D31Q W36V")
0.596
>>> endpoint_value("chain 1 Y103W D106T")
0.875
>>> endpoint_value("chain 1 F29C W33G")
0.544
>>> endpoint_value("chain 1 S101I Y107Q")
0.376
>>> endpoint_value("chain 1 T28D")
1.15
>>> endpoint_value("chain 1 S101V G109P")
0.223
>>> endpoint_value("chain 1 Y102C M105P")
0.69
>>> endpoint_value("chain 1 M34P V37L")
1.01
>>> endpoint_value("chain 1 G100R")
0.624
>>> endpoint_value("chain 1 S101W G104H")
0.376
>>> endpoint_value("chain 1 F29Q S30C N35I")
0.232
>>> endpoint_value("chain 1 F29D M34I")
0.946
>>> endpoint_value("chain 1 F29M Y32M")
1.21
>>> endpoint_value("chain 1 S30P V37Y")
1.25
>>> endpoint_value("chain 1 G100W S101E")
0.429
